- Tested on: JAK1-dependent STAT6 phosphorylation downstream of IL-13 stimulation in TF-1 human erythroleukemia cells
- procedure text: cells
- assay conditions: TF-1, read-out: IL-13-pSTAT6 IC50
pIC50: −log10 of the molar value.
parameter: pIC50

Reference set (3 entries):
# molecule, pIC50
records = [
    ("CCOC(=O)N1CC=C(c2cccn3nc(Nc4ccc(C(=O)NC5CCN(C)C5)cc4)nc23)CC1 (stereo not shown)", 7.88),
    ("CN(Cc1ccc(N(C)C)cc1)C(=O)c1ccc(Nc2nc3c(C4=CCN(C(=O)CCC(F)(F)F)CC4)cccn3n2)cc1", 7.39),
    ("CCOC(=O)N1CC=C(c2cccn3nc(Nc4ccc(C(=O)NCc5cc(C)ccn5)cc4)nc23)CC1", 7.41),
]

I = O=C(CCC(F)(F)F)N1CC=C(c2cccn3nc(Nc4ccc(C(=O)N5CCN(Cc6ccccn6)CC5)cc4)nc23)CC1
II = CNC(=O)C1CN(C(=O)c2ccc(Nc3nc4c(C5=CCN(C(=O)CCC(F)(F)F)CC5)cccn4n3)cc2)CCN1C (stereo not shown)
III = CN(C)CCN1CCN(C(=O)c2ccc(Nc3nc4c(N5CCC(O)(c6ccc(Cl)cc6)CC5)cccn4n3)cc2)CC1
IV = CN(C)C1CCN(C(=O)c2ccc(Nc3nc4c(C5=CCN(C(=O)CCC(F)(F)F)CC5)cccn4n3)cc2)C1 (stereo not shown)
Hey, quick one: sort these by pIC50, largest value first please. Reply: labels, ordered per the request.
I, IV, III, II
(I: 8.37, IV: 8.04, III: 7.69, II: 7.43)

====

- Tested on: JAK1-dependent STAT6 phosphorylation downstream of IL-13 stimulation in TF-1 human erythroleukemia cells
- procedure text: cells
- assay conditions: TF-1, read-out: IL-13-pSTAT6 IC50
pIC50: −log10 of the molar value.
parameter: pIC50

Known results for compounds:
# compound, reported value
rows = [
    ("CN1CCC(N(C)C(=O)c2ccc(Nc3nc4c(N5CCC(CO)(c6ccc(Cl)cc6)CC5)cccn4n3)cc2)CC1", 8.27),
    ("O=C(CCC(F)(F)F)N1CC=C(c2cccn3nc(Nc4ccc(C(=O)N5CCCC6(CCCCN6)C5)cc4)nc23)CC1 (stereo not shown)", 8.05),
]

I = CN1CCCCC1CNC(=O)c1ccc(Nc2nc3c(C4=CCN(C(=O)CCC(F)(F)F)CC4)cccn3n2)cc1 (stereo not shown)
II = CNC1CN(C(=O)c2ccc(Nc3nc4c(N5CCC(O)(c6ccc(Cl)cc6)CC5)cccn4n3)cc2)C1
III = CN1CCC(CCNC(=O)c2ccc(Nc3nc4c(C5=CCN(C(=O)CCC(F)(F)F)CC5)cccn4n3)cc2)CC1
IV = CC(=O)N1CC=C(c2cccn3nc(Nc4ccc(C(=O)N(C)C5CCN(C)CC5)cc4)nc23)CC1
V = CCOC(=O)N1CC=C(c2cccn3nc(Nc4ccc(C(=O)NCC5CCCNC5)cc4)nc23)CC1 (stereo not shown)
Kindly order the items shown according to pIC50, from the highest value down. Returns: the labels listed in the requested order.
I, II, III, V, IV

====

- System: JAK1-dependent STAT6 phosphorylation downstream of IL-13 stimulation in TF-1 human erythroleukemia cells
- procedure text: cells
- assay conditions: TF-1, read-out: IL-13-pSTAT6 IC50
parameter: IC50 (nM)

# molecule, parameter, reported value
data = [
    ("O=C(c1ccc(Nc2nc3c(N4CCC(O)(c5ccc(Cl)cc5)CC4)cccn3n2)cc1)N1CCC2(CCCN2)CC1", "IC50", 79.4),
]

P = O=C(CCC(F)(F)F)N1CC=C(c2cccn3nc(Nc4ccc(C(=O)N5C[C@H]6CNC[C@H]6C5)cc4)nc23)CC1
Q = CCOC(=O)N1CC=C(c2cccn3nc(Nc4ccc(C(=O)N5CC(NC)C5)cc4)nc23)CC1
R = O=C(NCC1CCNC1)c1ccc(Nc2nc3c(C4=CCN(C(=O)CCC(F)(F)F)CC4)cccn3n2)cc1 (stereo not shown)
# sort list by recorded IC50, greatest to least Enter labels, ranked according to the request.
P, R, Q
(P: 250 nM, R: 154 nM, Q: 10 nM)

====

- Test system: JAK1-dependent STAT6 phosphorylation downstream of IL-13 stimulation in TF-1 human erythroleukemia cells
- procedure text: cells
- assay conditions: TF-1, read-out: IL-13-pSTAT6 IC50
parameter: IC50 (nM)

# compound, parameter, unit info, reported value
rows = [
    ("O=C(c1ccc(Nc2nc3c(N4CCC(O)(c5ccc(Cl)cc5)CC4)cccn3n2)cc1)N1CCC(N2CCOCC2)CC1", "IC50", "nM", 16.4),
]

a = O=C(c1ccc(Nc2nc3c(N4CCC(O)(c5ccc(Cl)cc5)CC4)cccn3n2)cc1)N1CCN(Cc2cccnc2)CC1
b = CCOC(=O)N1CC=C(c2cccn3nc(Nc4ccc(C(=O)NC(C)c5cccc(C)n5)cc4)nc23)CC1 (stereo not shown)
c = O=C(NC1CC2(CCNCC2)C1)c1ccc(Nc2nc3c(C4=CCN(C(=O)CCC(F)(F)F)CC4)cccn3n2)cc1
Form: Sort by [IC50] Order [ ascending ] // format: requested-order list of labels
b, a, c
(b: 14.8 nM, a: 25.8 nM, c: 104 nM)

====

- Tested on: JAK1-dependent STAT6 phosphorylation downstream of IL-13 stimulation in TF-1 human erythroleukemia cells
- procedure text: cells
- assay conditions: TF-1, read-out: IL-13-pSTAT6 IC50
pIC50: −log10 of the molar value. Structures can show the parent of a compound that is named as a salt.
parameter: pIC50

Example cases with answers are listed next.
# compound, reported value
measured = [
    ("O=C(CCC(F)(F)F)N1CC=C(c2cccn3nc(Nc4ccc(C(=O)N5CCC(Cc6cccnc6)CC5)cc4)nc23)CC1 [Example 2-277]", 7.70),
    ("O=C(CCC(F)(F)F)N1CC=C(c2cccn3nc(Nc4ccc(C(=O)N5CCCC5c5cccnc5)cc4)nc23)CC1 (centres unmarked) [Example 2-145]", 8.19),
    ("CCOC(=O)N1CC=C(c2cccn3nc(Nc4ccc(C(=O)N5CCCCC5c5cccnc5)cc4)nc23)CC1 (centres unmarked) [Example 2-232]", 6.54),
]

I = COC1(c2ccccc2)CCN(c2cccn3nc(Nc4ccc(C(=O)N(C)C5CCN(C)CC5)cc4)nc23)CC1 [Example 1-5, hydrochloride]
II = NCC1CN(C(=O)c2ccc(Nc3nc4c(C5=CCN(C(=O)CCC(F)(F)F)CC5)cccn4n3)cc2)C1 [Example 2-207]
Kindly identify the item with the lower pIC50 figure among these two: I and II Write down the label attached to your selection.
I

I = O=C(CCC(F)(F)F)N1CC=C(c2cccn3nc(Nc4ccc(C(=O)N5CCN(C6CCCCC6)CC5)cc4)nc23)CC1 [Example 2-329]
II = COCCN(C(=O)c1ccc(Nc2nc3c(C4=CCN(C(=O)CCC(F)(F)F)CC4)cccn3n2)cc1)C1CCN(C)CC1 [Example 2-209]
Higher pIC50 between I and II ? Mark your answer with the label of the selected entry.
I
(I: 8.08, II: 7.52)

P = CN1CCN(C(=O)c2ccc(Nc3nc4c(C5=CCN(C(=O)CCC(F)(F)F)CC5)cccn4n3)cc2)CC1 [Example 2-98]
Q = CN1CCC(N(C)C(=O)c2ccc(Nc3nc4c(N5CCC(O)(c6ccc(C#N)cc6)CC5)cccn4n3)cc2)CC1 [Example 1-21]
Sort P and Q by pIC50 descending and give the first. Could you answer with the label of the item you picked?
P

a = CN(C)[C@H]1CCN(C(=O)c2ccc(Nc3nc4c(C5=CCN(C(=O)CCC(F)(F)F)CC5)cccn4n3)cc2)C1 [Example 2-158]
b = O=C(c1ccc(Nc2nc3c(N4CCC(O)(c5ccc(Cl)cc5)CC4)cccn3n2)cc1)N1C[C@@H]2CCN[C@@H]2C1 [Example 1-234]
Between a and b , whose recorded pIC50 is greater? Select an item and report its label.
a

P = CN(C)C1CCN(C(=O)c2ccc(Nc3nc4c(C5=CCN(C(=O)CCC(F)(F)F)CC5)cccn4n3)cc2)CC1 [Example 2-97]
Q = O=C(c1ccc(Nc2nc3c(N4CCC(O)(c5ccc(Cl)cc5)CC4)cccn3n2)cc1)N1CC2CNCC2C1 (centres unmarked) [Example 1-197]
Two entries are listed, P and Q . Which one carries the higher pIC50? Please identify the chosen entry by its label.
P

====

- Test system: JAK1-dependent STAT6 phosphorylation downstream of IL-13 stimulation in TF-1 human erythroleukemia cells
- procedure text: cells
- assay conditions: TF-1, read-out: IL-13-pSTAT6 IC50
parameter: IC50 (µM)

# compound, IC50 (µM)
rows = [
    ("O=C(NC1CCCNC1)c1ccc(Nc2nc3c(N4CCC(O)(c5ccc(Cl)cc5)CC4)cccn3n2)cc1 (stereo not shown)", 0.0843),
    ("CN1CCC(N(C)C(=O)c2ccc(Nc3nc4c(C5=CCN(C(=O)OC6CC6)CC5)cccn4n3)cc2)CC1", 0.034),
    ("Cc1cccc(C(C)NC(=O)c2ccc(Nc3nc4c(C5=CCN(C(=O)CCC(F)(F)F)CC5)cccn4n3)cc2)n1 (stereo not shown)", 0.006),
    ("O=C(CCC(F)(F)F)N1CC=C(c2cccn3nc(Nc4ccc(C(=O)N5CCN(CC6CC6)CC5)cc4)nc23)CC1", 0.0086),
]

1 = CC1CCCN(C2CCN(C(=O)c3ccc(Nc4nc5c(C6=CCN(C(=O)CCC(F)(F)F)CC6)cccn5n4)cc3)CC2)C1 (stereo not shown)
2 = CN1CCCC1CCNC(=O)c1ccc(Nc2nc3c(C4=CCN(C(=O)CCC(F)(F)F)CC4)cccn3n2)cc1 (stereo not shown)
3 = O=C(c1ccc(Nc2nc3c(N4CCC(O)(c5ccc(Cl)cc5)CC4)cccn3n2)cc1)N1CCCC12CCCNC2 (stereo not shown)
Please produce an ascending ranking of these compounds based on IC50. Please respond by ranking the labels in the order requested.
1, 2, 3
(1: 0.0061 µM, 2: 0.0335 µM, 3: 0.165 µM)
